biological target: human α7 nicotinic acetylcholine receptor (HEK cell line stably expressing human RIC-3 and human α7) (Homo sapiens); construct: host or cells: HEK cell line (PrecisION hnAChR α7/RIC-3); test: Automated patch-clamp electrophysiology functional assay (Assay A), IonFlux HT, whole-cell population patch; format: cell-based; details: HEK cells expressing human α7/RIC-3; test compound with or without 40 μM acetylcholine; holding potential −60 mV; room temperature; read-out: α7 nAChR Potency
Measured property: EC50

Consider the following illustrative entries.
>>> value("NS(=O)(=O)N1CCC2(CC1)C[C@H]2c1noc(-c2ccc3c(c2)CCCC3)n1 [Example E72]")
"100 to 500 nM"
>>> value("NS(=O)(=O)N1CCC2(CC1)C(c1nc(-c3ccnc(OC(F)F)c3)no1)C2(F)F (centres unmarked) [Example C9]")
"100 to 500 nM"
>>> value("NS(=O)(=O)N1CCC2(CC1)C[C@H]2c1nnc(-c2ccccc2OCC(F)(F)F)s1 [Example F7]")
"100 to 500 nM"
>>> value("NS(=O)(=O)N1CCC2(CC1)[C@H](c1noc(-c3cnn4c3CCC4)n1)C2(F)F [Example E42]")
"500 to 5000 nM"

Recorded EC50 for NS(=O)(=O)N1CCC2(CC1)[C@H](c1ccn(-c3ccc(F)cc3C(F)(F)F)n1)C2(F)F (stereo in doubt) [Example 36] , please? 500 to 5000 nM

Bench note: what EC50 did CC(C)(C)n1nccc1-c1nc([C@@H]2C(F)(F)C23CCN(S(N)(=O)=O)CC3)no1 [Example E35] show? 100 to 500 nM

Fill blank: measured EC50 of the compound Cc1ccc(-c2nc([C@@H]3CC34CCN(S(N)(=O)=O)CC4)no2)c(C)c1 [Example D19] is ____. 100 to 500 nM

Which EC50 is reported for this compound? COc1ccc(Cl)cc1-c1noc(C2CC23CCN(S(N)(=O)=O)CC3)n1 (racemic) [Example C13] 500 to 5000 nM

Which EC50 reading was recorded for the compound NS(=O)(=O)N1CCC2(CC1)CC2c1nc(-c2ccnc(N3CCCC3)c2)no1 (racemic) [Example C2] ? 500 to 5000 nM

Please report the recorded EC50 for NS(=O)(=O)N1CCC2(C(F)C1)C(c1nc(-c3ccc(F)cc3C(F)(F)F)no1)C2(F)F (centres unmarked) [Example I16] . 500 to 5000 nM

Please report the recorded EC50 for NS(=O)(=O)N1CCC2(CC1)[C@H](c1noc(-c3ccnn3C3CC3)n1)C2(F)F [Example E34] . 100 to 500 nM

Give the measured EC50 of NS(=O)(=O)N1CCC2(CC1)C[C@H]2c1noc(-c2ncccc2OCC(F)(F)F)n1 [Example E78] . 500 to 5000 nM

Tell me the measured EC50 of NS(=O)(=O)N1CCC2(CC1)C[C@H]2c1csc(-c2conc2C2CC2)n1 [Example G2] , please. 500 to 5000 nM

GET /values?readout=EC50&item= NS(=O)(=O)N1CCC2(CC1)C[C@H]2c1nc(-c2conc2C2CC2)co1 [Example 23] 500 to 5000 nM

Field request: EC50 | item: NS(=O)(=O)N1CCC2(CC1)[C@H](c1noc(-c3cccnc3)n1)C2(F)F [Example E56] 500 to 5000 nM

Reported EC50, compound CCn1cc(-c2nc([C@@H]3C(F)(F)C34CCN(S(N)(=O)=O)CC4)no2)c(C2CC2)n1 [Example E37] : ____ < 100 nM

State the recorded EC50 for this entry: NS(=O)(=O)N1CCC2(CC2c2nc(-c3conc3C3CC3)no2)C(F)C1 (single isomer, unassigned) [Example I9] 500 to 5000 nM

Reported EC50 for NS(=O)(=O)N1CCC2(CC1)C[C@H]2c1noc(-c2cccc(OC(F)F)c2)n1 [Example D11] : what is it? 500 to 5000 nM

Query: EC50; subject: CNc1ncccc1-c1noc(C2CC23CCN(S(N)(=O)=O)CC3)n1 (racemic) [Example C1] 500 to 5000 nM

----------
biological target: human α7 nicotinic acetylcholine receptor (HEK cell line stably expressing human RIC-3 and human α7) (Homo sapiens); construct: host or cells: HEK cell line (PrecisION hnAChR α7/RIC-3); assay: Automated patch-clamp electrophysiology functional assay (Assay A), IonFlux HT, whole-cell population patch; type: cell-based; settings: automated patch-clamp electrophysiology functional assay (Assay A); read-out: α7 nAChR EC50
Reported log10(EC50) values for the following molecules.
Please note: log10 values; quantity EC50; unit nM.

>>> value("Cn1cc(-c2nc([C@@H]3C(F)(F)C34CCN(S(N)(=O)=O)CC4)no2)c(C(F)(F)F)n1")
2.38
>>> value("CC(C)(C)n1ncc(-c2nc([C@@H]3C(F)(F)C34CCN(S(N)(=O)=O)CC4)no2)c1C(F)(F)F")
2.18
>>> value("NS(=O)(=O)N1CCC2(C(F)C1)C(c1nc(-c3conc3C3CC3)no1)C2(F)F (mixture of isomers) [Example I11]")
2.91
>>> value("NS(=O)(=O)N1CCC2(CC1)[C@H](c1noc(-c3ccnc(OC(F)F)c3)n1)C2(F)F")
2.34
>>> value("NS(=O)(=O)N1CCC2(CC1)C(c1nc(-c3c(C(F)(F)F)noc3C3CC3)no1)C2(F)F (stereo not shown)")
1.57
>>> value("NS(=O)(=O)N1CCC2(CC1)[C@H](c1noc(-c3c(C4CC4)noc3C(F)(F)F)n1)C2(F)F")
1.48

// returns reported log10(EC50) for input "Cc1ccc(C)c(-c2nc([C@@H]3CC34CCN(S(N)(=O)=O)CC4)no2)c1" 1.91

----------
target: human α7 nicotinic acetylcholine receptor (HEK cell line stably expressing human RIC-3 and human α7) (Homo sapiens, UniProt P36544); construct: host or cells: HEK cell line (PrecisION hnAChR α7/RIC-3); test: Automated patch-clamp electrophysiology functional assay (Assay A), IonFlux HT, whole-cell population patch; format: cell-based; conditions: HEK cells expressing human α7/RIC-3; test compound with or without 40 μM acetylcholine; holding potential −60 mV; room temperature; read-out: α7 nAChR Potency
Sequence (P36544 23-502): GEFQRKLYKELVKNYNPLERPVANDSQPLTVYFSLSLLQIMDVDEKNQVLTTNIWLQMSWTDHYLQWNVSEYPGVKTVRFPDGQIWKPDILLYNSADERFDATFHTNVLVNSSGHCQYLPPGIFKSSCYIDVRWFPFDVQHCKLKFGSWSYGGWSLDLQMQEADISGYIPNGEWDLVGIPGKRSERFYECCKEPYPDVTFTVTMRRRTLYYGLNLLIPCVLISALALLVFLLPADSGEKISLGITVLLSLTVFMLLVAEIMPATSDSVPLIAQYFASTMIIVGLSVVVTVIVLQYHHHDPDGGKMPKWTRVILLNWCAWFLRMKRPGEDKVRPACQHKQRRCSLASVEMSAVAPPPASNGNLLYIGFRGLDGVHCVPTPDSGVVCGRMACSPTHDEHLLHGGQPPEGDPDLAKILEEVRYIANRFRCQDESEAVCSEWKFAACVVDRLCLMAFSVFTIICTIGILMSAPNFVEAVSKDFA
Measured property: EC50

// worked examples, EC50 included
>>> value("NS(=O)(=O)N1CCC2(CC1)C[C@H]2c1noc(C2(c3cccc(C(F)(F)F)c3)CC2)n1 [Example E14]")
"500 to 5000 nM"
>>> value("NS(=O)(=O)N1CCC2(CC1)C[C@H]2c1noc(C2CCc3c(F)cccc32)n1 (mixture of isomers) [Example E13]")
"500 to 5000 nM"
>>> value("NS(=O)(=O)N1CCC2(CC2c2nc(-c3ccccc3)no2)C(F)(F)C1 (single isomer, unassigned) [Example I3]")
"500 to 5000 nM"
>>> value("CC(C)C1CC(c2nc([C@@H]3CC34CCN(S(N)(=O)=O)CC4)no2)C1 (mixture of isomers) [Example E3]")
"500 to 5000 nM"
>>> value("NS(=O)(=O)N1CCC2(CC1)C[C@H]2c1noc(-c2cc(Cl)ccc2OC(F)(F)F)n1 [Example D22]")
"100 to 500 nM"

Could you tell me which EC50 is on file for NS(=O)(=O)N1CCC2(CC1)C[C@H]2c1noc(Cc2cc(C(F)(F)F)ccc2F)n1 [Example E5] ? 500 to 5000 nM

Fill in: EC50 of Cc1ccc(C)c(-c2noc(C3CC34CCN(S(N)(=O)=O)CC4(F)F)n2)c1 (single isomer, unassigned) [Example I4] is ___ 500 to 5000 nM

Could you tell me which EC50 is on file for NS(=O)(=O)N1CCC2(CC1)[C@H](c1nc(-c3ccnn3CC(F)(F)F)no1)C2(F)F [Example 12] ? 100 to 500 nM

Can you look up the measured EC50 of NS(=O)(=O)N1CCC2(CC2c2nc(-c3cccc(OC(F)F)c3)no2)C(F)C1 (single isomer, unassigned) [Example I2] for me? 500 to 5000 nM

Record request: EC50 value, item CCn1nc(-c2nc([C@@H]3CC34CCN(S(N)(=O)=O)CC4)no2)cc1C [Example 27] 500 to 5000 nM

# input compound: NS(=O)(=O)N1CCC2(CC1)C[C@H]2c1noc(-c2cccc3c2CCC3)n1 [Example E69] ; wanted: its EC50 < 100 nM

Look up EC50 for this compound: NS(=O)(=O)N1CCC2(CC1)C[C@H]2c1noc(C2(c3cc(F)ccc3F)CCC2)n1 [Example E10] 500 to 5000 nM

----------
Listed here are molecules together with their documented pEC50.
Biological target: human α7 nicotinic acetylcholine receptor (HEK cell line stably expressing human RIC-3 and human α7) (Homo sapiens, UniProt P36544)
Construct: host or cells: HEK cell line (PrecisION hnAChR α7/RIC-3)
Experiment: Automated patch-clamp electrophysiology functional assay (Assay A), IonFlux HT, whole-cell population patch
Type: cell-based
Conditions: HEK cells expressing human α7/RIC-3; test compound with or without 40 μM acetylcholine; holding potential −60 mV; room temperature; read-out: α7 nAChR Potency
Method: The α7 nAChR positive allosteric modulator (PAM) activity of the present compounds may be tested using assays known in the art. […] The assay was performed using the IonFlux HT in a whole-cell, population patch configuration. See Golden et al. Assay Drug Dev. Technol. […] The compounds were assessed for their ability to modulate the function of the human 7 nAChR stably expressed in a HEK cell line both in the presence, and in the absence of the natural 7 agonist acetylcholine. […]
pEC50: −log10 of the molar value.

The following molecules have reported results that may help.
>>> value("NS(=O)(=O)N1CCC2(CC1)[C@H](c1nsc(-c3ccc(F)cc3C(F)(F)F)n1)C2(F)F (stereo in doubt)")
"5.30 to 6.30"
>>> value("NS(=O)(=O)N1CCC2(CC1)C[C@H]2c1noc(-c2ccc(Cl)cc2C(F)(F)F)n1")
"5.30 to 6.30"
>>> value("NS(=O)(=O)N1CCC2(CC1)[C@H](c1cc(-c3ccc(F)cc3C(F)(F)F)ns1)C2(F)F")
"6.30 to 7.00"
>>> value("NS(=O)(=O)N1CCC2(CC1)C[C@H]2c1noc(Cc2c(F)cccc2C(F)(F)F)n1")
"4.30 to 5.30"
>>> value("Cc1ccc(C)c(-c2noc(C3(C)C(F)(F)C34CCN(S(N)(=O)=O)CC4)n2)c1 (racemic)")
"5.30 to 6.30"
>>> value("NS(=O)(=O)N1CCC2(CC1)C[C@H]2c1noc(-c2ccccc2OC(F)(F)F)n1")
"6.30 to 7.00"
>>> value("NS(=O)(=O)N1CCC2(CC1)[C@H](c1nc(-c3conc3C3CC3)no1)C2(F)F")
"> 7.00"
>>> value("NS(=O)(=O)N1CCC2(CC1)C[C@H]2c1noc(-c2cccnc2C(F)(F)F)n1")
"5.30 to 6.30"
>>> value("Cc1ccc(C2CC2)c(-c2nc([C@@H]3C(F)(F)C34CCN(S(N)(=O)=O)CC4)no2)c1")
"> 7.00"
>>> value("NS(=O)(=O)N1CCC2(CC1)C[C@H]2c1nc(-c2cc(F)ccc2C(F)(F)F)no1")
"5.30 to 6.30"

I'd like to know its pEC50. The molecule in question is "NS(=O)(=O)N1CCC2(CC1)C[C@H]2c1nnc(-c2ccc(F)cc2C(F)(F)F)o1" 5.30 to 6.30
